Reported Emax values follow for various molecules
# systemTested: Protein cereblon/E3 ubiquitin-protein ligase Mdm2 (Homo sapiens) (UniProt Q00987+Q96SW2)
# Sequence (Q00987 whole entry, looked up): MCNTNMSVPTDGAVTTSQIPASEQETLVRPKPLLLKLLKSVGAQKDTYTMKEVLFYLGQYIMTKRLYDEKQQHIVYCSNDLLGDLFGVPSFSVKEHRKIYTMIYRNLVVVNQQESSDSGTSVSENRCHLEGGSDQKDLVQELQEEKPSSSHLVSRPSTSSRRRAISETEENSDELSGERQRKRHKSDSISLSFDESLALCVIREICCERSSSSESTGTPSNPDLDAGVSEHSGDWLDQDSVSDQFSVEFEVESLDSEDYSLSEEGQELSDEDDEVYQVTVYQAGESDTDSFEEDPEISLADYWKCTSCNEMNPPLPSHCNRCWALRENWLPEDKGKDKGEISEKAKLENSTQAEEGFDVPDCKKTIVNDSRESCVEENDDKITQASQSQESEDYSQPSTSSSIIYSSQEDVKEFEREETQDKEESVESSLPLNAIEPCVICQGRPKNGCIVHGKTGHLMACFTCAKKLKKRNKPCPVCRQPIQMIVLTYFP
# Sequence (Q96SW2 whole entry, looked up): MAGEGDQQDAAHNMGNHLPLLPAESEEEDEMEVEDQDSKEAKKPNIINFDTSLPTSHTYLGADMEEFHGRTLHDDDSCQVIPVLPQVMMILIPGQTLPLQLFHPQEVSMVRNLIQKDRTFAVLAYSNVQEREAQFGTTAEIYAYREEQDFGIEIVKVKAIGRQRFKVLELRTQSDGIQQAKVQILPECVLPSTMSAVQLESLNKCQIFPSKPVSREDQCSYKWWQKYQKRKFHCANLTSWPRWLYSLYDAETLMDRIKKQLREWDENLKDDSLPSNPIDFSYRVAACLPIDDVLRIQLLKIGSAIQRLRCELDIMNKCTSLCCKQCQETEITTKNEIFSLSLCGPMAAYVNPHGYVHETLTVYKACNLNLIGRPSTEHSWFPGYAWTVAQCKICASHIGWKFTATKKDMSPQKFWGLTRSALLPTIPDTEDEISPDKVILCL
# method: PROTAC activity at CRBN/MDM2 in human HEK293 cells at 30 uM measured after 24 hrs Western blot analysis relative to control
# Assay type: cell-based
State the answer as a number, implicitly in %.

Observe how each entry below is paired with its result.
- molecule: "CN(C(=O)CCOCCOCCOCCOCCNc1cccc2c1C(=O)N(C1CCC(=O)NC1=O)C2=O)C(c1ccc(F)cc1)c1cccnc1 (centres undefined)"
  endpointName: "Emax"
  valueObserved: 5.5
- molecule: "CN(C(=O)CCOCCNc1cccc2c1C(=O)N(C1CCC(=O)NC1=O)C2=O)C(c1ccc(F)cc1)c1cccnc1 (centres undefined)"
  endpointName: "Emax"
  valueObserved: 31.2
- molecule: "CN(C(=O)CCOCCOCCNc1cccc2c1C(=O)N(C1CCC(=O)NC1=O)C2=O)C(c1ccc(F)cc1)c1cccnc1 (centres undefined)"
  endpointName: "Emax"
  valueObserved: 26.5

Shifting focus to the molecule that follows.
## Task Can you share its Emax? I mean this molecule: O=C1CCC(N2C(=O)c3ccc(NCCOCCC(=O)N4CCOC(c5cccc(OC(F)F)c5)C4)cc3C2=O)C(=O)N1 (centres undefined)
## Result 23.2
